Entries and their TGI values follow.
- Test system: SW-620 colon
- test-name: NCI tumour cell line growth inhibition, 48 h

- compound: "O=c1c2cc([N+](=O)[O-])ccc2oc2nc3n(c(=O)c12)CCCS3"
  value-kind: "TGI"
  recorded-value: "> 100 µM"

## Input Record lookup: for SW-620 colon, what TGI belongs to `O=C1c2cc3c(cc2-c2c1c1ccc(Cl)cc1c(=O)n2CCCn1ccnc1)OCO3` ?
## Output > 100 µM

## Input And the next one, `Cc1cc(O)c(-c2ccc([C@@H](C)CN(C)C)cc2)c2c1[nH]c(=O)c1sccc12` ?
## Output > 61.9 µM

## Input And the next one, `O=C(c1ccco1)N(C(=O)N1CCC(c2ccccc2)CC1)c1ccccc1` ?
## Output > 100 µM

## Input And the next one, `C[C@]12C[C@H](O)[C@H]3[C@@H](CCC4=CC(=O)CC[C@@]43C)[C@@H]1CC[C@@H]2c1csc(-c2ccccc2)n1` ?
## Output > 100 µM

## Input And the next one, COc1ccc(OC(C)C(=O)O)c2c(=O)ccccc12 (stereo unspecified) ?
## Output > 100 µM

###

- Tested on: MDA-MB-231 breast
- test-name: NCI tumour cell line growth inhibition, 48 h
value-kind: GI50

- compound: "C=C1CCC2C3(C)COC(c4ccccc4Cl)OC3CCC2(C)C1/C=C/C1=CCOC1=O (centres undefined)"
  value-kind: "GI50"
  recorded-value: "> 100000 nM"

## Input Query (compound): `CS(=O)(=O)N(c1cc(-c2ccc3ncnc(Nc4ccc(F)c(Cl)c4)c3c2)cnc1Cl)S(C)(=O)=O` ; field requested: GI50
## Output 1750 nM

## Input And the next one, `COc1cc(NCCCCCN=C(N)NC(N)=NC(C)C)c2ncccc2c1` ?
## Output 531 nM

## Input And the next one, `Cc1cc(O)c(-c2ccc([C@@H](C)CN(C)C)cc2)c2c1[nH]c(=O)c1sccc12` ?
## Output 608 nM

###

- System: SK-OV-3 ovarian
- test-name: NCI tumour cell line growth inhibition, 48 h
Entries and their TGI values follow.

## Input Query (compound): `CO[P@@]1(=O)O[C@@H](c2ccccc2)[C@H](O)[C@]1(O)c1ccccc1` ; field requested: TGI
## Output > 100 µM

###

- System: SK-MEL-2 melanoma
- test-name: NCI tumour cell line growth inhibition, 48 h
Entries and their GI50 values follow.

Would you please look over these solved cases?
- molecule: "CCCCn1c(=O)c(/C=C/C(=O)/C=C/c2cc3ccccc3n(CCCC)c2=O)cc2ccccc21"
  GI50: "2.09 µM"
- molecule: "COc1c(N2CCN(CN3C(=O)C(=Nc4ccc(S(=O)(=O)Nc5ncccn5)cc4)c4cc(Cl)ccc43)C(C)C2)c(F)cc2c(=O)c(C(=O)O)cn(C3CC3)c12 (stereo not drawn)"
  GI50: "26.6 µM"
- molecule: "CC(=O)[CH-]C(=O)c1ccccc1.CC(=O)[CH-]C(=O)c1ccccc1.[O-]c1ccc2c(c1)OCO2.[O-]c1ccc2c(c1)OCO2.[Ti+4]"
  GI50: "22.5 µM"
- molecule: "C[N+](C)=c1ccc2nc3c(cc(NCCCNc4cc5oc6cc(=[N+](C)C)ccc-6nc5c5ccccc45)c4ccccc43)oc-2c1"
  GI50: "15 µM"
- molecule: "CC1(C)CCC[C@]2(C)c3ccccc3C(=O)CC12 (stereo partly drawn)"
  GI50: "22 µM"

## Input Query (molecule): `Cc1cccc2c1[nH]c(=O)c1c3ccccc3cn21` ; field requested: GI50
## Output 14.4 µM

## Input And the next one, `COc1cc(NCCCCCN=C(N)NC(N)=NC(C)C)c2ncccc2c1` ?
## Output 1.95 µM

## Input And the next one, `COC(=O)[C@H](Cc1cn(C)cn1)NC(=O)[C@H](Cc1ccccc1)NC(=O)Nc1cc(C(F)(F)F)cc(C(F)(F)F)c1` ?
## Output 17.7 µM

The measured values listed here are drawn from PubChem BioAssay (NCI).
